- assayed system: human COX-2 (Homo sapiens, UniProt P35354)
- experiment: COX functional assay
- Assay type: biochemical
- condition set: compound 10 μM
Catalogue of Inhibition of COX-2 (%) Mean ± std. dev. (N=3) values
Report the value in % with no unit label.

>>> recorded_measurement("COc1cc(/C=C/C(=O)OCCc2ccccc2)ccc1O [Phenethyl trans-ferulate]")
25
>>> recorded_measurement("C=C(C)[C@@H]1CC[C@]2(C)[C@H](CC=C3[C@@H]4[C@@H](C)[C@H](C)CC[C@]4(C)CC[C@]32C)[C@@]1(C)CCC(=O)O [Roburic acid]")
45
>>> recorded_measurement("CCC/C=C1\\OC(=O)C2=C1CC[C@H]1[C@H]3C=C4C(=O)O/C(=C\\CCC)[C@@]4(CC3)[C@@H]21 [Senkyunolide O]")
52
>>> recorded_measurement("CC(=O)O[C@@H]1CC[C@@]2(C)[C@@H](CC[C@]3(C)[C@@H]2CC=C2[C@@H]4CC(C)(C)CC[C@]4(C)CC[C@]23C)[C@@]1(C)C(=O)O [Acetyl-α-boswellic acid]")
19
>>> recorded_measurement("CC(=O)O[C@@H]1CC[C@@]2(C)[C@@H](CC[C@]3(C)[C@@H]2CC=C2[C@@H]4[C@@H](C)[C@H](C)CC[C@]4(C)CC[C@]23C)[C@@]1(C)C(=O)O [Acetyl-β-boswellic acid]")
25

Kindly review the next compound as well.
[ask] Which Inhibition of COX-2 (%) Mean ± std. dev. (N=3) is listed for CC(=O)O[C@@H]1CC[C@@]2(C)[C@@H](CC[C@]3(C)[C@@H]2C(=O)C=C2[C@@H]4[C@@H](C)[C@H](C)CC[C@]4(C)CC[C@]23C)[C@@]1(C)C(=O)O [Acetyl-11-keto-β-boswellic acid] ?
[reply] 23

* * *

- assayed system: human COX-2 (Homo sapiens, UniProt P35354)
- Sequence (P35354 18-604): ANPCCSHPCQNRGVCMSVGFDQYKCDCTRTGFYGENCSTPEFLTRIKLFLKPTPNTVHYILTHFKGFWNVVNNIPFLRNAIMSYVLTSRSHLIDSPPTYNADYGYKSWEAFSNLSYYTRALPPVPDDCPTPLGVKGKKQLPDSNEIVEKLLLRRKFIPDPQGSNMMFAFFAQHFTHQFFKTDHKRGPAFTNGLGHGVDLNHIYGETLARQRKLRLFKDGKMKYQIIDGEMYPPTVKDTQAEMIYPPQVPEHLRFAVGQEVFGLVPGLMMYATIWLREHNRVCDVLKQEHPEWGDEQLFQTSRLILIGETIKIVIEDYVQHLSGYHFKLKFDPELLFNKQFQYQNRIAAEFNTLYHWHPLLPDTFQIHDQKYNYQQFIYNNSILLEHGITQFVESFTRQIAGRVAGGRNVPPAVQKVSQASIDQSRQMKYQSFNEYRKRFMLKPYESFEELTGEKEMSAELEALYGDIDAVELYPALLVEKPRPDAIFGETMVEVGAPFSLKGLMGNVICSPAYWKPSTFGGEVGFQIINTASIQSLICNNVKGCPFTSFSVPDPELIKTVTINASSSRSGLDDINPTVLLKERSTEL
- experiment: COX functional assay
- Format: biochemical
- condition set: read-out: Inhibition of COX-2 (%) Mean ± std. dev. (N=3)
Catalogue of inhibition at 10 µM values
Report the value in % with no unit label.

>>> recorded_measurement("C[C@H]1[C@H](C)CC[C@]2(C)CC[C@]3(C)C(=CC[C@@H]4[C@@]5(C)CC[C@@H](O)[C@](C)(C(=O)O)[C@@H]5CC[C@]43C)[C@H]12 [β-Boswellic acid]")
17
>>> recorded_measurement("O=C(/C=C/c1ccc(O)cc1)c1ccc(O)cc1O [Isoliquiritigenin]")
23
>>> recorded_measurement("C=C(C)[C@@H]1CC[C@]2(C(=O)O)CC[C@]3(C)[C@H](CC[C@@H]4[C@@]5(C)CC[C@H](O)C(C)(C)[C@@H]5CC[C@]43C)[C@@H]12 [Betulinic acid]")
33

Kindly review the next molecule as well.
[ask] Which inhibition at 10 µM is listed for C[C@H]1COC2=C1C(=O)C(=O)c1c2ccc2c1CCCC2(C)C [Cryptotanshinone] ?
[reply] 31
